Assay Details: COS7 lysate on small-molecule microarray, probe aHis, 635 nm (AID 1123);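 further: z-score combines 667nm fluorescence intensity with signal-to-noise per printed compound spot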
Condition Description: COS7 cell lysate, fluorescence, higher = more signal
Could you please report measured composite z-score for the items listed next?
No unit in the answer, only the number.

State the recorded composite z-score for this entry: CN1C(=O)C2C=CC(C(O)c3ccc(-c4ccccc4)s3)N(N(c3ccccc3)c3ccccc3)C2C1=O (configuration not stated)
1.69

Also, COc1cc2c(cc1O)C(C1CC1)N(Cc1cc3c(cc1Br)OCO3)CC2 (configuration not stated) please.
0.478

Also, `COC(=O)[C@@]1(Cc2ccc(OC)cc2)[C@H]2c3cc(C(=O)N4CCCC4)n(Cc4ccsc4Br)c3C[C@H]2CN1C(=O)c1ccccc1` please.
2.83

Also, CS(=O)(=O)CCOC(=O)C1=CC(CCCO)=CC(c2ccc(CN3CCCC3)cc2)N(Cc2cc3c(cc2Br)OCO3)C=C1C(=O)OCCS(C)(=O)=O (configuration not stated) please.
1.78

Also, `COC(=O)c1c(CC[C@@H](CO)NC(=O)N[C@@H](C)Cn2cc(C3(O)CCCCC3)nn2)oc(C(C)=O)c1C(=O)OC` please.
0.377

Also, `COC(=O)[C@@]1(Cc2ccccc2)[C@H]2c3cc(C(=O)N(C)C)n(CCSCCO)c3C[C@H]2CN1C(=O)c1ccccc1` please.
2.26

Also, `C[C@]1(C(=O)NC2CC2)c2ccccc2C(=O)N(Cc2cc(C(F)(F)F)cc(C(F)(F)F)c2)[C@H]1c1ccc(CO)cc1` please.
1.28
